assaySystem: human NK1 receptor (Homo sapiens)
Sequence (P25103 whole entry): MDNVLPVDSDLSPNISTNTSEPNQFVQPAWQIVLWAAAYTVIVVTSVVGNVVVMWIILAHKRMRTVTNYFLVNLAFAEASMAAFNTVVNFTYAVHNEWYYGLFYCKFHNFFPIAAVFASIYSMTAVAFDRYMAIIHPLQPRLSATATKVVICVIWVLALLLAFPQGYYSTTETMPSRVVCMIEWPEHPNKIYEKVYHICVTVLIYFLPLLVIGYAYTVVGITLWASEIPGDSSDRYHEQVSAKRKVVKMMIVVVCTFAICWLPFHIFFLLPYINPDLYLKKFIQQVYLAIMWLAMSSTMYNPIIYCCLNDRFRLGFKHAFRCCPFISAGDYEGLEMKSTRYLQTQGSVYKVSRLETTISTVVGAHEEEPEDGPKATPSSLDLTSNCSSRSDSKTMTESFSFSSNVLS
assayNotes: NK1 receptor binding, [3H]substance P displacement, CHO cell membranes
particulars: first value of the cell pKi NK1/NK3; human NK1 receptor, [3H]substance P
pKi: −log10 of the molar value.
observedProperty: pKi

Use the examples below as a reference point.
C[C@@H](O)[C@H](CO)Nc1cc(-c2ccccc2Cl)c(N(C)C(=O)C(C)(C)c2cc(C(F)(F)F)cc(C(F)(F)F)c2)cn1	9.05
Cc1ccccc1-c1cc(N2CC[C@H](O)C[C@@H]2CO)ncc1N(C)C(=O)C(C)(C)c1cc(C(F)(F)F)cc(C(F)(F)F)c1 (racemic)	8.80
Cc1ccccc1-c1cc(N2CC[C@@H](O)[C@H](O)C2)ncc1N(C)C(=O)C(C)(C)c1cc(C(F)(F)F)cc(C(F)(F)F)c1 (racemic)	8.85
Cc1cc(F)ccc1-c1cc(NC(CO)CO)ncc1N(C)C(=O)C(C)(C)c1cc(C(F)(F)F)cc(C(F)(F)F)c1	8.89
C[C@@H](O)CNc1cc(-c2ccccc2Cl)c(N(C)C(=O)C(C)(C)c2cc(C(F)(F)F)cc(C(F)(F)F)c2)cn1	9.06
CN(C(=O)C(C)(C)c1cc(C(F)(F)F)cc(C(F)(F)F)c1)c1cnc(N2C[C@H](O)C[C@H]2CO)cc1-c1ccc(Cl)cc1Cl	8.79
CN(C(=O)C(C)(C)c1cc(C(F)(F)F)cc(C(F)(F)F)c1)c1cnc(N(CCO)CCO)cc1-c1ccccc1Cl	9.03
CN(C(=O)C(C)(C)c1cc(C(F)(F)F)cc(C(F)(F)F)c1)c1cnc(N(CCO)CCO)cc1-c1ccccc1Br	8.65
Cc1c(F)cccc1-c1cc(N(CCO)CCO)ncc1N(C)C(=O)C(C)(C)c1cc(C(F)(F)F)cc(C(F)(F)F)c1	8.66
Cc1cc(F)ccc1-c1cc(N2CCNC(=O)CC2)ncc1N(C)C(=O)C(C)(C)c1cc(C(F)(F)F)cc(C(F)(F)F)c1	8.79

a = Cc1cc(F)ccc1-c1cc(NCCO)ncc1N(C)C(=O)C(C)(C)c1cc(C(F)(F)F)cc(C(F)(F)F)c1
b = CN(C(=O)C(C)(C)c1cc(C(F)(F)F)cc(C(F)(F)F)c1)c1cnc(N2CC[C@H](O)C2)cc1-c1ccccc1Cl
c = CN(C(=O)C(C)(C)c1cc(Cl)cc(Cl)c1)c1cnc(N2CCC[C@H]2CO)cc1-c1ccccc1Cl
IN: Provide the items ranked by increasing pKi. Reply format: the labels, ordered as requested.
OUT: c, a, b

A = CN(C(=O)C(C)(C)c1cc(C(F)(F)F)cc(C(F)(F)F)c1)c1cnc(N2CC[C@H](N(C)C)C2)cc1-c1ccccc1Cl
B = CN(CCO)c1cc(-c2ccc(F)cc2)c(N(C)C(=O)C(C)(C)c2cc(C(F)(F)F)cc(C(F)(F)F)c2)cn1
IN: Could you determine which record has the numerically smaller pKi? Candidates: A and B Pick one; state its label.
OUT: B
(B: 8.73, A: 8.94)

---

assaySystem: Recombinant human NK3 (hNK3) receptor (Homo sapiens, UniProt P29371)
Construct: expressed in transfected cells
Sequence (P29371 whole entry): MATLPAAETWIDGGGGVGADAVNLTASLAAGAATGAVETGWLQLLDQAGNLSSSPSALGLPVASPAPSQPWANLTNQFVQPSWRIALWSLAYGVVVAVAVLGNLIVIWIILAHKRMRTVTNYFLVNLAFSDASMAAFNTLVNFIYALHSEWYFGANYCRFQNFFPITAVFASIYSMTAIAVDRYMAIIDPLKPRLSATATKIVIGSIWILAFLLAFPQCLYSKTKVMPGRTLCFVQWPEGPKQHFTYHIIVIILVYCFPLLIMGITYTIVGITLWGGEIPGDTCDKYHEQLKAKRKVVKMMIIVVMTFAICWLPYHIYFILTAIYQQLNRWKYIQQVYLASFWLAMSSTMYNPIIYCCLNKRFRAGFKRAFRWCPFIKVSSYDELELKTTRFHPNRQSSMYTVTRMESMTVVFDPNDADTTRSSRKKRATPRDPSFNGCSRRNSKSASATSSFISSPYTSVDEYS
assayNotes: NK3 receptor binding, [3H]SR142801 displacement, membrane preparations
particulars: second value of the cell NK1/NK3; read-out: pKi NK3 (converted)
observedProperty: Ki (nM)

Cc1ncccc1-c1cc(N2C[C@@H](O)C[C@H]2CO)ncc1N(C)C(=O)C(C)(C)c1cc(C(F)(F)F)cc(C(F)(F)F)c1 [Example 255]	10.7
COc1ccccc1-c1cc(N2C[C@H](O)C[C@H]2CO)ncc1N(C)C(=O)C(C)(C)c1cc(C(F)(F)F)cc(C(F)(F)F)c1 [Example 214]	2.75

A = CN(C(=O)C(C)(C)c1cc(C(F)(F)F)cc(C(F)(F)F)c1)c1cnc(N2C[C@H](O)C[C@H]2CO)cc1-c1cccc(Cl)c1Cl [Example 229]
B = Cc1ccccc1-c1cc(N2C[C@@H](O)C[C@@H]2CO)ncc1N(C)C(=O)C(C)(C)c1cc(C(F)(F)F)cc(C(F)(F)F)c1 [Example 260]
IN: Which has the higher Ki, A or B ? Pick one; state its label.
OUT: B
(B: 17.8 nM, A: 1.86 nM)

---

assaySystem: Recombinant human NK3 (hNK3) receptor (Homo sapiens)
Construct: expressed in transfected cells
assayNotes: NK3 receptor binding, [3H]SR142801 displacement, membrane preparations
particulars: second value of the cell pKi NK1/NK3; hNK3 receptor, [3H]SR142801
observedProperty: Ki (nM)

CN(C(=O)C(C)(C)c1cc(Cl)cc(Cl)c1)c1cnc(N2CCC[C@H]2CO)cc1-c1ccccc1Cl [Example 2]	0.891
Cc1cc(F)ccc1-c1cc(N2CC[C@H](N(C)S(C)(=O)=O)C2)ncc1N(C)C(=O)C(C)(C)c1cc(C(F)(F)F)cc(C(F)(F)F)c1 [Example 105]	5.25
CC(=O)N(C)[C@H]1CCN(c2cc(-c3ccc(F)cc3C)c(N(C)C(=O)C(C)(C)c3cc(C(F)(F)F)cc(C(F)(F)F)c3)cn2)C1 [Example 107]	11.7

P = CN(C(=O)C(C)(C)c1cc(C(F)(F)F)cc(C(F)(F)F)c1)c1cnc(N(CCO)CCO)cc1-c1ccccc1Cl [Example 82]
Q = Cc1cc(F)ccc1-c1cc(N2CCC[C@H]2C(C)(C)O)ncc1N(C)C(=O)C(C)(C)c1cc(C(F)(F)F)cc(C(F)(F)F)c1 [Example 159]
R = CN(C(=O)C(C)(C)c1cc(C(F)(F)F)cc(C(F)(F)F)c1)c1cnc(N2CCC[C@H]2CN2CCCC2)cc1-c1ccccc1Cl [Example 64]
S = Cc1cc(F)ccc1-c1cc(N2CCC(O)C2)ncc1N(C)C(=O)C(C)(C)c1cc(C(F)(F)F)cc(C(F)(F)F)c1 (racemic) [Example 110]
IN: Provide the items ranked by increasing Ki. Reply format: the labels, ordered as requested.
OUT: P, R, Q, S
(P: 0.813 nM, R: 2.88 nM, Q: 9.55 nM, S: 13.8 nM)

---

assaySystem: human NK1 receptor (Homo sapiens)
assayNotes: NK1 receptor binding, [3H]substance P displacement, CHO cell membranes
particulars: first value of the cell NK1/NK3; read-out: pKi NK1 (converted)
observedProperty: Ki (nM)

1 = CN(C(=O)C(C)(C)c1cc(C(F)(F)F)cc(C(F)(F)F)c1)c1cnc(N2C[C@H](O)C[C@H]2CO)cc1-c1ccc(F)c(Cl)c1 [Example 212]
2 = Cc1ccc(F)cc1-c1cc(N2C[C@@H](O)C[C@H]2CO)ncc1N(C)C(=O)C(C)(C)c1cc(C(F)(F)F)cc(C(F)(F)F)c1 [Example 250]
3 = CN(C(=O)C(C)(C)c1cc(C(F)(F)F)cc(C(F)(F)F)c1)c1cnc(N2C[C@@H](O)C[C@H]2CO)cc1-c1ccccc1C(F)(F)F [Example 243]
4 = CN(C(=O)C(C)(C)c1cc(C(F)(F)F)cc(C(F)(F)F)c1)c1cnc(N2C[C@H](O)C[C@H]2CO)cc1-c1cc(F)cc(F)c1 [Example 208]
5 = Cc1ncccc1-c1cc(N2C[C@H](O)C[C@H]2CO)ncc1N(C)C(=O)C(C)(C)c1cc(C(F)(F)F)cc(C(F)(F)F)c1 [Example 233]
IN: Rank descending by Ki. Reply format: the labels, ordered as requested.
OUT: 3, 2, 4, 1, 5
(3: 3.89 nM, 2: 1.95 nM, 4: 1.35 nM, 1: 0.813 nM, 5: 0.427 nM)

1 = CN(C(=O)C(C)(C)c1cc(C(F)(F)F)cc(C(F)(F)F)c1)c1cnc(N2CC[C@H](O)[C@H]2CO)cc1-c1ccc(F)cc1Cl [Example 272]
2 = Cc1ccncc1-c1cc(N(CCO)CCO)ncc1N(C)C(=O)C(C)(C)c1cc(C(F)(F)F)cc(C(F)(F)F)c1 [Example 293]
3 = Cc1cc(F)ccc1-c1cc(N2C[C@@H](O)C[C@H]2CO)ncc1N(C)C(=O)C(C)(C)c1cc(C(F)(F)F)cc(C(F)(F)F)c1 [Example 238]
IN: Put the items in sequence by Ki, from largest down. Reply format: the labels, ordered as requested.
OUT: 2, 1, 3

A = CN(C(=O)C(C)(C)c1cc(C(F)(F)F)cc(C(F)(F)F)c1)c1cnc(N2C[C@@H](O)C[C@H]2CO)cc1-c1ccc(Cl)cc1Cl [Example 236]
B = CN(C(=O)C(C)(C)c1cc(C(F)(F)F)cc(C(F)(F)F)c1)c1cnc(N2CCC[C@H]2CO)cc1-c1ccc(F)cc1 [Example 288]
IN: Could you determine which record has the numerically smaller Ki? Candidates: A and B Pick one; state its label.
OUT: A

---

assaySystem: Recombinant human NK3 (hNK3) receptor (Homo sapiens)
Construct: expressed in transfected cells
assayNotes: NK3 receptor binding, [3H]SR142801 displacement, membrane preparations
particulars: second value of the cell NK1/NK3; read-out: pKi NK3 (converted)
observedProperty: Ki (nM)

Use the examples below as a reference point.
CN(C(=O)C(C)(C)c1cc(C(F)(F)F)cc(C(F)(F)F)c1)c1cnc(N2C[C@H](O)C[C@H]2CO)cc1-c1ccc(F)c(Cl)c1	2.51
Cc1noc(C)c1-c1cc(N2C[C@H](O)C[C@H]2CO)ncc1N(C)C(=O)C(C)(C)c1cc(C(F)(F)F)cc(C(F)(F)F)c1	2.69
Cc1c(F)cccc1-c1cc(N2C[C@H](O)C[C@H]2CO)ncc1N(C)C(=O)C(C)(C)c1cc(C(F)(F)F)cc(C(F)(F)F)c1	1.41
CN(C(=O)C(C)(C)c1cc(C(F)(F)F)cc(C(F)(F)F)c1)c1cnc(N2C[C@H](O)C[C@H]2CO)cc1-c1cccnc1Cl	1.35
CN(C(=O)C(C)(C)c1cc(C(F)(F)F)cc(C(F)(F)F)c1)c1cnc(N2CC[C@H](O)[C@H]2CO)cc1-c1ccccc1F	2.14
CN(C(=O)C(C)(C)c1cc(C(F)(F)F)cc(C(F)(F)F)c1)c1cnc(N2C[C@@H](O)C[C@H]2CO)cc1-c1ccc(Cl)c(Cl)c1	6.17
COc1ccc(-c2cc(N3C[C@H](O)C[C@H]3CO)ncc2N(C)C(=O)C(C)(C)c2cc(C(F)(F)F)cc(C(F)(F)F)c2)c(OC)n1	14.1
CN(C(=O)C(C)(C)c1cc(C(F)(F)F)cc(C(F)(F)F)c1)c1cnc(N2C[C@H](O)C[C@H]2CO)cc1-c1cc(F)cc(F)c1	6.17
Cc1ncccc1-c1cc(N(CCO)CCO)ncc1N(C)C(=O)C(C)(C)c1cc(C(F)(F)F)cc(C(F)(F)F)c1	7.76
CN(C(=O)C(C)(C)c1cc(C(F)(F)F)cc(C(F)(F)F)c1)c1cnc(N2CC[C@H](O)[C@H]2CO)cc1-c1ccc(F)cc1Cl	1.1

P = CN(C(=O)C(C)(C)c1cc(C(F)(F)F)cc(C(F)(F)F)c1)c1cnc(N2C[C@@H](O)C[C@H]2CO)cc1-c1ccc(Cl)cc1Cl
Q = Cc1ccccc1-c1cc(N2CC[C@H](O)[C@H]2CO)ncc1N(C)C(=O)C(C)(C)c1cc(C(F)(F)F)cc(C(F)(F)F)c1
IN: Which has the higher Ki, P or Q ? Pick one; state its label.
OUT: P

P = CSc1ccccc1-c1cc(N2C[C@H](O)C[C@H]2CO)ncc1N(C)C(=O)C(C)(C)c1cc(C(F)(F)F)cc(C(F)(F)F)c1
Q = Cc1ccccc1-c1cc(N2C[C@@H](F)C[C@H]2CO)ncc1N(C)C(=O)C(C)(C)c1cc(C(F)(F)F)cc(C(F)(F)F)c1
R = Cc1ccc(-c2cc(N3C[C@H](O)C[C@H]3CO)ncc2N(C)C(=O)C(C)(C)c2cc(C(F)(F)F)cc(C(F)(F)F)c2)cc1F
S = CN(C(=O)C(C)(C)c1cc(C(F)(F)F)cc(C(F)(F)F)c1)c1cnc(N2C[C@H](O)C[C@H]2CO)cc1-c1ccc(F)cc1F
IN: Provide the items ranked by increasing Ki. Reply format: the labels, ordered as requested.
OUT: Q, P, S, R
(Q: 1.32 nM, P: 2.4 nM, S: 6.61 nM, R: 13.8 nM)

// data source = patent US8404708B2
